pIC50: −log10 of the molar value.
Here's what we have: pIC50 numbers for CDK9T1 (Homo sapiens, UniProt P50750).
observation type: pIC50

• CCCn1cc(-c2ccnc(Nc3cccc(C(=O)N4CCN(C)CC4)c3)n2)c2cccnc21 = 6.46
• CCCn1cc(-c2ccnc(Nc3cccc(O)c3)n2)c2cccnc21 = 6.85
• CCCn1cc(-c2ccnc(Nc3ccc(S(N)(=O)=O)cc3)n2)c2cccnc21 = 7.28
• CCn1cc(-c2ccnc(Nc3cccc(O)c3)n2)c2ccnc(Cl)c21 = 7.10
• CCn1cc(-c2ccnc(Nc3cccc([N+](=O)[O-])c3)n2)c2cccnc21 = 6.10
• CCCn1cc(-c2ccnc(Nc3cccc(S(N)(=O)=O)c3)n2)c2nc(Cl)cc(C)c21 = 7.39
• Oc1cccc(Nc2nccc(-c3cn(Cc4ccccc4)c4ccccc34)n2)c1 = 5.93
• Cn1cc(-c2ccnc(Nc3ccc(O)cc3)n2)c2ccccc21 = 7.37
• Oc1ccc(Nc2nccc(-c3cn(Cc4ccccc4)c4ccccc34)n2)cc1 = 6.17
• CCCn1cc(-c2ccnc(Nc3cccc(S(N)(=O)=O)c3)n2)c2cccnc21 = 7.01
• CCn1cc(-c2ccnc(Nc3cccc(S(N)(=O)=O)c3)n2)c2ccnc(Cl)c21 = 7.62
• CCCn1cc(-c2ccnc(Nc3cccc([N+](=O)[O-])c3)n2)c2cccnc21 = 6.80
• CCn1cc(-c2ccnc(Nc3ccc(O)cc3)n2)c2ccccc21 = 7.59

---

Experiment: Pharmacokinetic determination, rat IV/PO study
Type: in vivo
Conditions: male, Sprague-Dawley, plasma, PO (20 mg/kg)
Experimental: Male Sprague-Dawley rats were maintained on food and water ad libitum. They were housed in an individual ventilated caging system. […] The appropriate quantity compound with free base (Wt.: 346.1) was accurately weighted into a tube and dissolved in NMP, vortexed to get a clear solution. […] The concentrations of the test compound in plasma were determined using a high performance liquid chromatography/mass spectrometry (HPLC/MS/MS) method.
observation type: AUC(0-t) (ng·h/mL)

- CCn1cc(-c2ccnc(Nc3cccc(S(N)(=O)=O)c3)n2)c2cccnc21: 1470

---

Tested on: HCT 116
Assay: 72 h MTT cell viability HCT 116
Assay type: cell-based
Details: Homo sapiens, read-out: Cell Viability IC50 HCT 116
Parameter: IC50. Scope: all listed entries.
observation type: IC50 (nM)

- CCCn1cc(-c2ccnc(Nc3ccc(S(N)(=O)=O)cc3)n2)c2ccncc21: 5
- CCCn1cc(-c2ccnc(Nc3cccc(S(N)(=O)=O)c3)n2)c2ccnc(Cl)c21: 320
- CCCn1cc(-c2ccnc(Nc3cccc(S(N)(=O)=O)c3)n2)c2cccnc21: 1890
- CCCn1cc(-c2ccnc(Nc3ccc(C)c(S(=O)(=O)N4CCOCC4)c3)n2)c2cccnc21: 3430
- CCCn1cc(-c2ccnc(Nc3cccc(S(N)(=O)=O)c3)n2)c2nc(Cl)cc(C)c21: 3360

---

Test system: A549 cells
Test: 72 h MTT cytotoxicity assay A549
Type: cell-based
Conditions: Homo sapiens; A549, 72 hrs
pIC50: −log10 of the molar value.
Parameter: pIC50. Scope: all listed entries.
observation type: pIC50

* CCCn1cc(-c2ccnc(Nc3cccc(S(N)(=O)=O)c3)n2)c2nc(Cl)cc(C)c21 | 5.76
* CCCn1cc(-c2ccnc(Nc3cccc(O)c3)n2)c2cccnc21 | 5.48
* CCn1cc(-c2ccnc(Nc3cccc(C(N)=O)c3)n2)c2cccnc21 | 5.46
* CCCn1cc(-c2ccnc(Nc3cccc(S(N)(=O)=O)c3)n2)c2cccnc21 | 5.55
* CCCn1cc(-c2ccnc(Nc3ccc(S(N)(=O)=O)cc3)n2)c2ccncc21 | 7.52
* Cn1cc(-c2ccnc(Nc3cccc(O)c3)n2)c2ccccc21 | 5.22
* CCCn1cc(-c2ccnc(Nc3cccc(S(N)(=O)=O)c3)n2)c2ccnc(Cl)c21 | 6.92
* CCCn1cc(-c2ccnc(Nc3ccc(C)c(S(=O)(=O)N4CCOCC4)c3)n2)c2ccncc21 | 6.24

---

System: PC-3M-luc
Assay: 72 h MTT cell viability PC-3M-luc
Format: cell-based
Conditions: Homo sapiens
observation type: log10 of IC50 (log10 of the value in µM)

- CCCn1cc(-c2ccnc(Nc3cccc(S(N)(=O)=O)c3)n2)c2nc(Cl)cc(C)c21: 0.61
- CCCn1cc(-c2ccnc(Nc3ccc(O)cc3)n2)c2cccnc21: 1.02
- CCCn1cc(-c2ccnc(Nc3cccc(S(N)(=O)=O)c3)n2)c2ccnc(Cl)c21: -0.32
- CCn1cc(-c2ccnc(Nc3cccc(S(N)(=O)=O)c3)n2)c2cccnc21: 0.55
- CCCn1cc(-c2ccnc(Nc3cccc(O)c3)n2)c2cccnc21: 0.71
- CCCn1cc(-c2ccnc(Nc3ccc(C)c(S(=O)(=O)N4CCOCC4)c3)n2)c2cccnc21: 0.70
- CCCn1cc(-c2ccnc(Nc3cccc(S(N)(=O)=O)c3)n2)c2ccncc21: -2.22
- CCCn1cc(-c2ccnc(Nc3cccc(S(N)(=O)=O)c3)n2)c2cccnc21: 0.50
- CCCn1cc(-c2ccnc(Nc3ccc(S(N)(=O)=O)cc3)n2)c2ccncc21: -1.57
- CCn1cc(-c2ccnc(Nc3cccc(S(N)(=O)=O)c3)n2)c2ccnc(Cl)c21: -0.05
- CCCn1cc(-c2ccnc(Nc3ccc(C)c(S(=O)(=O)N4CCOCC4)c3)n2)c2ccncc21: 0.05

---

System: K562 cells
Assay: 72 h MTT cytotoxicity assay K562
Type: cell-based
Conditions: Homo sapiens; K562, 72 hrs
pIC50: −log10 of the molar value.
observation type: pIC50

* CCCn1cc(-c2ccnc(Nc3cccc(S(N)(=O)=O)c3)n2)c2cccnc21 | 5.85
* CCCn1cc(-c2ccnc(Nc3ccc(S(N)(=O)=O)cc3)n2)c2nc(Cl)cc(C)c21 | 5.33
* CCCn1cc(-c2ccnc(Nc3cccc([N+](=O)[O-])c3)n2)c2cccnc21 | 5.64
* CCn1cc(-c2ccnc(Nc3cccc(C#N)c3)n2)c2cccnc21 | 5.21
* CCCn1cc(-c2ccnc(Nc3ccc(C)c(S(=O)(=O)N4CCOCC4)c3)n2)c2ccncc21 | 5.84
* Cn1cc(-c2ccnc(Nc3cccc(O)c3)n2)c2ccccc21 | 5.32
* CCn1cc(-c2ccnc(Nc3cccc(S(N)(=O)=O)c3)n2)c2cccnc21 | 5.17
* Cn1cc(-c2ccnc(Nc3ccc(O)cc3)n2)c2ccccc21 | 5.21
* CCCn1cc(-c2ccnc(Nc3cccc(O)c3)n2)c2cccnc21 | 5.11
* CCCn1cc(-c2ccnc(Nc3ccc(O)cc3)n2)c2cccnc21 | 5.01
* CCCn1cc(-c2ccnc(Nc3ccc(S(N)(=O)=O)cc3)n2)c2ccncc21 | 8.96
* CCn1cc(-c2ccnc(Nc3cccc(C(N)=O)c3)n2)c2cccnc21 | 4.81
* CCCn1cc(-c2ccnc(Nc3cccc(S(N)(=O)=O)c3)n2)c2ccncc21 | 7.52
* CCCn1cc(-c2ccnc(Nc3ccc(C)c(S(=O)(=O)N4CCOCC4)c3)n2)c2cccnc21 | 5.43
* CCCn1cc(-c2ccnc(Nc3cccc(S(N)(=O)=O)c3)n2)c2ccnc(Cl)c21 | 6.66

---

Parameter: log10(IC50). Scope: all listed entries.
Target: Aurora A (Homo sapiens)
Construct: purchased Invitrogen PV3612
Sequence (O14965 1-403): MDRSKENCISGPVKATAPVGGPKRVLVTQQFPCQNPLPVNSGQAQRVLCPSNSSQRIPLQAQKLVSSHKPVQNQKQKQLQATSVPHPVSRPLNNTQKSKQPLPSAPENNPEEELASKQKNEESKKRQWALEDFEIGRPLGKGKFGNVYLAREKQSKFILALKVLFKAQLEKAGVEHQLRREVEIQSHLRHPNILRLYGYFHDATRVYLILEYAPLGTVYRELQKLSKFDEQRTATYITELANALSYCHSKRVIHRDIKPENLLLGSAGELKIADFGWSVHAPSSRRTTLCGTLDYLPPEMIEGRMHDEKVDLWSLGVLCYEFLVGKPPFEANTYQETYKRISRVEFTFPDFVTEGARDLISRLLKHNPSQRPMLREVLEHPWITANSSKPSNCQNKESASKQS
Test: Z'-LYTE kinase assay Aurora A
Format: biochemical
Conditions: Table III; read-out: Target biochemical activity IC50 Aurora A
Procedure: Kinase assays. The compounds from the example above were tested for their ability to inhibit kinases. […] Reactions were terminated by addition of stop buffer, and fluorescence emission intensity ratio 445 nm/520 nm (excited at 400 nm) was quantified by VICTOR-3 Multilabel Reader (Perkin-Elmer, Waltham, Mass., USA). Phosphorylation was calculated from the emission ratio. IC50 was determined using Sigmoid curve-fitting software Origin 6.0 (MicroCal, LLC, Northampton, Mass., USA).
observation type: log10(IC50) (log10 of the value in nM)

* CCCn1cc(-c2ccnc(Nc3cccc(S(N)(=O)=O)c3)n2)c2nc(Cl)cc(C)c21 | 1.99
* CCn1cc(-c2ccnc(Nc3ccc(O)cc3)n2)c2ccnc(Cl)c21 | 3.39
* CCCn1cc(-c2ccnc(Nc3ccc(S(N)(=O)=O)cc3)n2)c2nc(Cl)cc(C)c21 | 2.79
* CCn1cc(-c2ccnc(Nc3cccc(S(N)(=O)=O)c3)n2)c2cccnc21 | 1.48
* CCCn1cc(-c2ccnc(Nc3ccc(C)c(S(=O)(=O)N4CCOCC4)c3)n2)c2ccncc21 | 3.22
* CCCn1cc(-c2ccnc(Nc3cccc(S(N)(=O)=O)c3)n2)c2ccncc21 | 1.70

Cited source: patent US8309550B2
